# Test Description: qHTS assay to identify small molecule antagonists of the estrogen receptor alpha (ER-alpha) signaling pathway using the BG1 cell line in the presence of 0.1 nM 17-beta-estradiol - cell viability counter screen (AID 1259241); further: nearly all actives have a fitted effect of over 40% in size
# Condition: VM7Luc4E2 (BG1) viability, CellTiter-Fluor protease, 22 h, 0.1 nM estradiol agonist added; series mostly up to 92.4 µM
Records with an inconclusive call do not appear. Activity calls are given as the source filed them. The call rests on the fitted dose curve; in most records, active means well fitted cell-killing curve with a large enough effect in the repeat runs; inconclusive means weak or mixed curves, or effect the other way; inactive means flat fitted curve, though single readings scatter.
Possible outcomes: T = active, F = inactive

# Compound, Class Name
records = [
    ("CC(=O)[C@]1(O)Cc2c(O)c3c(c(O)c2[C@@H](O[C@H]2C[C@H](N)[C@H](O)[C@H](C)O2)C1)C(=O)c1ccccc1C3=O", "T"),
    ("CCCCCCCCCCCC(=O)Cl", "F"),
    ("COC(=O)c1ccc([N+](=O)[O-])cc1", "F"),
    ("Clc1nc(C(Cl)(Cl)Cl)c(Cl)c(Cl)c1Cl", "F"),
    ("CC(C=O)c1ccccc1 (stereo unspecified)", "F"),
    ("Brc1cc(Br)cc(Br)c1", "F"),
    ("O=[N+]([O-])c1ccc(CO)cc1", "F"),
    ("CC(C)(C)c1cc(CCC(=O)OCCSCCOC(=O)CCc2cc(C(C)(C)C)c(O)c(C(C)(C)C)c2)cc(C(C)(C)C)c1O", "F"),
    ("CSc1nnc(C(C)(C)C)c(=O)[nH]1", "F"),
    ("Nc1ccc(Oc2cccc(Oc3ccc(N)cc3)c2)cc1", "F"),
    ("CN1CCN(c2ccccc2/C=C2\\SCCN(c3ccc(Cl)c(Cl)c3)C2=O)CC1", "F"),
    ("Cc1cc(C)c(O)c(C(C)(C)C)c1", "F"),
    ("c1ccc(-c2ccc(C(c3ccccc3)n3ccnc3)cc2)cc1 (stereo unspecified)", "F"),
    ("Nc1cc([N+](=O)[O-])ccc1Cl", "F"),
    ("O=C1C=CC(=O)N1c1cccc(N2C(=O)C=CC2=O)c1", "T"),
    ("CCOC=C(C(=O)OCC)C(=O)OCC", "F"),
    ("C=C(C)CCO", "F"),
    ("Cc1ccc(C=O)cc1", "F"),
    ("O=C(NCc1ncc(C(F)(F)F)cc1Cl)c1c(Cl)cccc1Cl", "F"),
    ("C1CCSC1", "F"),
    ("[Cl][Eu]([Cl])[Cl]", "F"),
    ("CCc1cccc(C)c1N(C(=O)CS(=O)(=O)O)C(C)COC (stereo unspecified)", "F"),
    ("C=CCc1cc(S(=O)(=O)c2ccc(O)c(CC=C)c2)ccc1O", "F"),
    ("CC/C=C\\C/C=C\\C/C=C\\CCCCCCCC(=O)OC", "F"),
    ("Nc1ccc2c(S(=O)(=O)O)cccc2c1S(=O)(=O)O", "F"),
    ("CC1=C(/C=C/C(C)=C/C=C/C(C)=C\\C(=O)O)C(C)(C)CCC1", "F"),
]

###

# Measured On: Aromatase (Homo sapiens) (UniProt P11511)
# Sequence (P11511 whole entry, looked up): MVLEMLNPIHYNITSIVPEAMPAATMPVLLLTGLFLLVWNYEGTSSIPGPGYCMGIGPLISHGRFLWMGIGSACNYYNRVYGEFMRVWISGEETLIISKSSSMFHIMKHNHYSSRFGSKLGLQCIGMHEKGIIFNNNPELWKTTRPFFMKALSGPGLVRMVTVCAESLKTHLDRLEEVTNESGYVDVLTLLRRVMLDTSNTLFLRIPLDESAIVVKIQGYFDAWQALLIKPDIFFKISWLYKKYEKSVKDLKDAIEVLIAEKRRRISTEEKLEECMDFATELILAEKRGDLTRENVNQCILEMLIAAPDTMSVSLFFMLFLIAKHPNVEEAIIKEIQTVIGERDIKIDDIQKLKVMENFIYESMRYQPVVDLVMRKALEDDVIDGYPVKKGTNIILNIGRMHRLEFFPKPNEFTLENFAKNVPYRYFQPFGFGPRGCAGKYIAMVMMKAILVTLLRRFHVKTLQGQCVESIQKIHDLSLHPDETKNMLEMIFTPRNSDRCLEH
# Test Description: qHTS assay to identify aromatase inhibitors (AID 743083); further: nearly all actives have a fitted effect of over 55% in size
# Condition: MCF-7 aro ERE, testosterone-driven ERE luciferase, 24 h; series mostly up to 70.3 µM
Inconclusive results are not listed. Calls of active or inactive are those of the source. Calls come from the whole dose curve; as a rule, active = well fitted inhibition curve with a large enough effect in the repeat runs; inconclusive = weak or mixed curves; inactive = no such curve, though single readings can be large or run the other way. Positions of bridges follow the written chain, without caps; N, C: chain ends. Non-standard residues stand in square brackets, D forms with d. Residues, ends and D or L forms follow the SMILES beside them. *: point of attachment. X1 = CC[C@@H](C)[C@@H](N)C1=N[C@H](C(=O)*)CS1; d(aIle) = CC[C@H](C)[C@@H](N)C(=O)O; dOrn = NCCC[C@@H](N)C(=O)O
Possible outcomes: true (active), false (inactive)

# Molecule, Class Name
measured = [
    ("CC[C@@H](C)[C@@H](N)C1=N[C@H](C(=O)N[C@@H](CC(C)C)C(=O)N[C@@H](CCC(=O)O)C(=O)N[C@@H](C(=O)N[C@@H]2CCCCNC(=O)[C@@H](CC(N)=O)NC(=O)[C@@H](CC(=O)O)NC(=O)[C@@H](Cc3cnc[nH]3)NC(=O)[C@@H](Cc3ccccc3)NC(=O)[C@@H]([C@H](C)CC)NC(=O)[C@@H](CCCN)NC2=O)[C@@H](C)CC)CS1 (X1-LE[d(aIle)][dK][dOrn][dI][dF][dH][dD][dN]; lactam 4-C)", "false"),
    ("COc1ccc2ccccc2c1", "false"),
    ("NC(=O)[C@@H]1CCCN1C(=O)[C@H](Cc1cnc[nH]1)NC(=O)[C@@H]1CCC(=O)N1", "false"),
    ("O=[N+]([O-])c1ccc(O)c2ncccc12", "true"),
    ("Nc1ccc(N)c([N+](=O)[O-])c1", "false"),
    ("c1ccc2occc2c1", "true"),
    ("CCC1OC(=O)C[C@@H](O)[C@H](C)[C@@H](O[C@@H]2O[C@H](C)C[C@H](N(C)C)[C@H]2O)[C@@H](CC=O)C[C@@H](C)C(=O)/C=C/[C@]2(C)OC2C1C (some centres undefined)", "true"),
    ("c1ccc(-c2ccc(C(c3ccccc3)n3ccnc3)cc2)cc1 (centres undefined)", "true"),
    ("O=C(O)COc1ccccc1/C=N/NC(=O)c1ccncc1", "false"),
    ("CCCOC(=O)c1ccc(O)cc1", "false"),
    ("CO/N=C(\\C(=O)N[C@@H]1C(=O)N2C(C(=O)[O-])=C(C[n+]3cccc4c3CCC4)CS[C@H]12)c1csc(N)n1", "false"),
    ("CC(=O)[C@]1(O)Cc2c(O)c3c(c(O)c2[C@@H](O[C@H]2C[C@H](N)[C@H](O)[C@H](C)O2)C1)C(=O)c1ccccc1C3=O", "true"),
    ("CCC(=O)OC(OP(=O)(CCCCc1ccccc1)CC(=O)N1C[C@H](C2CCCCC2)C[C@H]1C(=O)O)C(C)C (some centres undefined)", "false"),
    ("N[C@H](CO)C(=O)O", "false"),
    ("O=P(O)(O)CP(=O)(O)O", "false"),
    ("COc1cc2c(cc1OC)[C@@H](Cc1cc(OC)c(OC)c(OC)c1)[N+](C)(CCCOC(=O)CC/C=C/CCC(=O)OCCC[N+]1(C)CCc3cc(OC)c(OC)cc3[C@H]1Cc1cc(OC)c(OC)c(OC)c1)CC2 (some centres undefined)", "false"),
    ("COC(=O)[C@H]1[C@H]2C[C@H]3c4[nH]c5ccccc5c4CCN3C[C@H]2CC[C@@H]1O", "false"),
    ("CCc1ncnc2cc(OC)c(OC)cc12", "false"),
    ("CC(C)C[C@@H](NC(=O)[C@@H](O)[C@H](N)Cc1ccccc1)C(=O)O", "false"),
    ("C=C(Nc1ccc(OCC)cc1)Nc1ccc(OCC)cc1", "false"),
    ("Cc1cc(CC(C)CC(C)(C)C)n(O)c(=O)c1 (centres undefined) (tested in a mixture with another compound)", "true"),
    ("NCc1cccc(C2CCN(C(=O)c3ccc(C#Cc4ccccc4F)o3)CC2)c1", "true"),
    ("COc1c(O)cc2c(c1O)[C@@H]1O[C@H](CO)[C@@H](O)[C@H](O)[C@H]1OC2=O", "false"),
    ("C[C@@H]1C(=O)NC2=Nc3cccc(Cl)c3CN21", "false"),
    ("COc1cc2c(c(OC)c1OC)-c1c(cc3c(c1OC)OCO3)C[C@@H](C)[C@](C)(O)C2", "false"),
    ("CC(=O)NC[C@H]1CN(c2ccc(N3CCOCC3)c(F)c2)C(=O)O1", "false"),
    ("O=C(Nc1ccccc1)c1cc(Cl)ccc1O", "true"),
    ("CC12CCC(C1)C(C)(C)C2=O (centres undefined)", "false"),
    ("CC[C@@]1([C@@H]2O[C@@H]([C@H]3O[C@@](O)(CO)[C@H](C)C[C@@H]3C)C[C@@H]2C)CC[C@H]([C@]2(C)CC[C@]3(C[C@H](O)[C@@H](C)[C@@H]([C@@H](C)[C@@H](OC)[C@H](C)C(=O)O)O3)O2)O1 (stereo in doubt)", "false"),
    ("C=N[C@@H](C(=O)N[C@@H]1C(=O)N2[C@@H]1SC(C)(C)[C@@H]2C(=O)O)c1ccccc1", "false"),
    ("C[C@@H]1O[C@@H](OC[C@H]2O[C@@H](Oc3c(-c4ccc(OCCO)c(OCCO)c4)oc4cc(OCCO)cc(O)c4c3=O)[C@H](O)[C@@H](O)[C@@H]2O)[C@H](O)[C@H](O)[C@H]1O", "false"),
    ("CC/C(=C(/CC)c1ccc(OP(=O)(O)O)cc1)c1ccc(OP(=O)(O)O)cc1", "false"),
    ("COc1ccc([C@@H]2CC(=O)c3c(O)cc(O[C@@H]4O[C@H](CO[C@@H]5O[C@@H](C)[C@H](O)[C@@H](O)[C@H]5O)[C@@H](O)[C@H](O)[C@H]4O)cc3O2)cc1O", "false"),
    ("c1ccc2c(c1)OCC(CN1CCCCC1)O2 (centres undefined)", "false"),
]
